# System under test: S. aureus TrmD (Staphylococcus aureus, UniProt Q2FZ43)
# Construct: made in house; host or cells: E. coli BL21
# Sequence (Q2FZ43 whole entry): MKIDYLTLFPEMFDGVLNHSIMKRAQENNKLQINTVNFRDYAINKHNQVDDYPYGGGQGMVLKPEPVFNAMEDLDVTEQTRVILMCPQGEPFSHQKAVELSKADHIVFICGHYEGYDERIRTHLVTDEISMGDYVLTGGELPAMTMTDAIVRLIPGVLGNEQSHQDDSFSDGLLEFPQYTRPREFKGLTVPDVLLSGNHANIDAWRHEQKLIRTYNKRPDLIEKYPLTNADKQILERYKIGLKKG
# Assay overview: nanoSAR direct-to-biology FP displacement screening of crude triazoles
# Assay type: binding
# Assay setup: crude triazole at 1 μM, assuming full conversion; 500 nM TrmD, 10 nM tracer 4; read-out: % displaced tracer
Observation type: inhibition at 1 µM (%)
Supply the numeric figure in %, leaving out any unit text.

Worked cases, inhibition at 1 µM given:
Query smiles: NCCCCCCn1cc(-c2c[nH]c3nc[nH]c(=O)c23)nn1
inhibition at 1 µM [%]: 50

Query smiles: CC(C)CN1CCO[C@H](Cn2cc(-c3c[nH]c4nc[nH]c(=O)c34)nn2)C1
inhibition at 1 µM [%]: 46

Entry under review: "C[C@@H](C(=O)Nc1ccccc1)n1cc(-c2c[nH]c3nc[nH]c(=O)c23)nn1" . Reported inhibition at 1 µM?
28

Here is the next molecule: "O=c1[nH]cnc2[nH]cc(-c3cn(CC4CCCC4)nn3)c12"
39

Here is the next molecule: "O=C(NCCn1cc(-c2c[nH]c3nc[nH]c(=O)c23)nn1)C(F)(F)F"
41

Here is the next molecule: "COc1ccc(C)cc1[C@@H](C)n1cc(-c2c[nH]c3nc[nH]c(=O)c23)nn1"
65

Here is the next molecule: "O=c1[nH]cnc2[nH]cc(-c3cn(Cc4cscn4)nn3)c12"
80

Here is the next molecule: "O=c1[nH]cnc2[nH]cc(-c3cn(Cc4nnc(C5CC5)o4)nn3)c12"
44

Here is the next molecule: "O=c1[nH]cnc2[nH]cc(-c3cn(CCF)nn3)c12"
22

Here is the next molecule: "O=c1[nH]cnc2[nH]cc(-c3cn([C@@H]4CCc5c(F)cccc54)nn3)c12"
68

Here is the next molecule: "COC(=O)[C@@H]1CCC[C@H](n2cc(-c3c[nH]c4nc[nH]c(=O)c34)nn2)C1"
33

Here is the next molecule: "O=c1[nH]cnc2[nH]cc(-c3cn([C@H](CC4CCCCC4)c4ncccn4)nn3)c12"
30

Here is the next molecule: "Cc1ccc(Cn2cc(-c3c[nH]c4nc[nH]c(=O)c34)nn2)o1"
33

Here is the next molecule: "Cc1cc(Cn2cc(-c3c[nH]c4nc[nH]c(=O)c34)nn2)no1"
35

Here is the next molecule: "CC(C)CSCCCn1cc(-c2c[nH]c3nc[nH]c(=O)c23)nn1"
35

Here is the next molecule: "Cc1csc(C[C@H](C)n2cc(-c3c[nH]c4nc[nH]c(=O)c34)nn2)n1"
31

---

# System under test: S. aureus TrmD (Staphylococcus aureus, UniProt Q2FZ43)
# Construct: made in house; host or cells: E. coli BL21
# Assay overview: nanoSAR direct-to-biology FP displacement screening of crude triazoles
# Assay type: binding
# Assay setup: crude triazole at 1 μM, assuming full conversion; 500 nM TrmD, 10 nM tracer 4; read-out: % displaced tracer
Observation type: inhibition at 1 µM (%)
Supply the numeric figure in %, leaving out any unit text.

Query smiles: COC(=O)c1cccc2nc(Cn3cc(-c4c[nH]c5nc[nH]c(=O)c45)nn3)cn12
Output unit: %
Quantitative result: 26

Can you look up inhibition at 1 µM on S. aureus TrmD (Staphylococcus aureus, UniProt Q2FZ43) for "O=c1[nH]cnc2[nH]cc(-c3cn(C[C@@H]4CC[C@H]4C(F)(F)F)nn3)c12" ?
47

Data provenance is paper PMC12751012.
